B1: minF1; a variant is named by its letters at N, in order (parent)
chain: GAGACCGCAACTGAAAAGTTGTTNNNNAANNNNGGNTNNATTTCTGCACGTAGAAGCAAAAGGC

Variants of: B1
run_description: fraction ligated after 30 min (ligated reads / total reads); higher = more ligase activity
assay_setup: with F1*subA RNA substrate (template-directed ligation), 42 °C
Please provide measured fraction ligated for the entries that follow.
One number for each entry.

The examples below pair each entry with its known result.
TCAGATGAGTA G34T :: 0.00143
ATCAAGGAGTG A28G G34T :: 0.00593
ACAAGATGTGA A29T :: 0.0029
ATCAGATGTGA A29G :: 0.0024
ACAGTGTGTGA :: 0.00188

Hi team, please reply with fraction ligated for each item in this list.
1. TAAAGATGTGA A29G
2. ATAGAGGTTGA
3. ATCAATGGGTT G34A T37G A40G

OUT:
[0.00158, 0.00247, 0.00153]
